Entry source: ChEMBL document CHEMBL3352042

System: A549
Assay: Cytotoxicity against human A549 cells by MTT assay
Format: functional, cell-based
Settings: Homo sapiens, A549; read-out: IC50
value type: IC50 (µM)
Lab book: enter the figure in µM, no units written.

INSERT INTO assay_data (compound_structure_string, unit_string, reported_result) VALUES
  ('CC(C)[C@H](NC(=S)NCc1ccccc1)c1nc2ccccc2[nH]1', 'µM', 56.1),
  ('CC(C)[C@H](NC(=S)Nc1cc(C(F)(F)F)cc(C(F)(F)F)c1)c1nc2ccccc2[nH]1', 'µM', 25.1),
  ('CC(C)C[C@H](NC(=S)Nc1cc(C(F)(F)F)cc(C(F)(F)F)c1)c1nc2ccccc2[nH]1', 'µM', 17.4);

Ask | Please respond with reported IC50 (system A549) for CC(C)C[C@@H](NC(=S)Nc1cc(C(F)(F)F)cc(C(F)(F)F)c1)c1nc2ccccc2[nH]1 .
Reply | 10.2

Ask | Please indicate recorded IC50 of CC(C)[C@@H](NC(=S)NCc1ccccc1)c1nc2ccccc2[nH]1 measured with A549.
Reply | 11.3

Ask | Please indicate recorded IC50 of FC(F)(F)c1cc(NC(=S)N[C@H](Cc2ccccc2)c2nc3ccccc3[nH]2)cc(C(F)(F)F)c1 measured with A549.
Reply | 15.8

Ask | Fill: IC50 (A549) for this compound C[C@H](NC(=S)Nc1cc(C(F)(F)F)cc(C(F)(F)F)c1)c1nc2ccccc2[nH]1
Reply | 220
